Molecular target: Fatty acid-binding protein, liver (Homo sapiens)
Sequence (whole entry): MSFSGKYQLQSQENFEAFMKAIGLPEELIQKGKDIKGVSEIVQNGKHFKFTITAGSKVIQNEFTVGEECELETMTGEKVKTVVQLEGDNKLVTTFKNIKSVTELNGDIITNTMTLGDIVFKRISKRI
Assay: Inhibition of human FABP1 at 9 uM incubated for 3 mins by fluorescence based analysis relative to control
Endpoint: inhibition (%)
Response body: numeric value in %, unit text excluded.

O=C(O)CCC(NC(=O)N1CCN(S(=O)(=O)c2cccc3cccnc23)CC1)C(=O)O (stereo unspecified) has a reported inhibition of 31.6

* * *

Biological target: Fatty acid-binding protein, liver (Homo sapiens) (UniProt P07148)
Sequence (whole entry): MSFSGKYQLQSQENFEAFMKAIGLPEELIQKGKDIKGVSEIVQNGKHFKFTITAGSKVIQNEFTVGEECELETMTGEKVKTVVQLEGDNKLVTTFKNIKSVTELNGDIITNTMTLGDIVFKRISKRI
Experiment: Inhibition of human FABP1 at 9 uM incubated for 3 mins by fluorescence based analysis relative to control
Below is a list of entries, each paired with its recorded inhibition value.
Response body: numeric value in %, unit text excluded.

Use these answered entries as a reference point.
- O=C(O)c1ccc(-c2ccccc2S(=O)(=O)N2CCN(S(=O)(=O)c3cccc4cccnc34)CC2)cc1: 68.3
- O=C(O)CCCCCCCOc1cccc(NS(=O)(=O)c2cccc3cccnc23)c1: 69.3
- O=C(O)CNC(=O)c1ccc(NS(=O)(=O)c2cccc3cccnc23)cc1: 16.1
- Cc1cc(F)ccc1-c1ccccc1S(=O)(=O)N1CCN(S(=O)(=O)c2cccc3cccnc23)CC1: 63.8

N#Cc1ccc(-c2ccccc2S(=O)(=O)N2CCN(S(=O)(=O)c3cccc4cccnc34)CC2)cc1 has a reported inhibition of 61.2

O=C(O)CC(=O)N1CCN(S(=O)(=O)c2ccc(-c3ccccc3)cc2)CC1 has a reported inhibition of 13.4

O=C(O)c1cccc(NS(=O)(=O)c2cccc3cccnc23)c1 has a reported inhibition of 8.28

O=C(O)CCNC(=O)c1ccc(NS(=O)(=O)c2cccc3cccnc23)cc1 has a reported inhibition of 15.3

O=C(O)CNC(=O)CNS(=O)(=O)c1cccc2cccnc12 has a reported inhibition of 10.1

O=C(O)CC(=O)N1CCN(S(=O)(=O)c2cccc3cccnc23)CC1 has a reported inhibition of 26.2

O=C(O)CCCCCCCOc1cccc(NS(=O)(=O)c2ccc(-c3ccccc3)cc2)c1 has a reported inhibition of 73.5

O=C(O)CCCCCCCOc1ccc(NS(=O)(=O)c2cccc3cccnc23)cc1 has a reported inhibition of 72.5

O=C(O)C1(C(=O)N2CCN(S(=O)(=O)c3ccc(-c4ccccc4)cc3)CC2)CC1 has a reported inhibition of 21.1

O=C(O)CC[C@H](NC(=O)c1ccc(NS(=O)(=O)c2cccc3cccnc23)cc1)C(=O)O has a reported inhibition of 12.2

O=S(=O)(c1ccc(-c2ccccc2)cc1)N1CCNCC1 has a reported inhibition of 0.18

O=C(O)C1CCCN(S(=O)(=O)c2cccc3cccnc23)C1 (stereo unspecified) has a reported inhibition of 13.7

O=C(O)CNC(=O)CNC(=O)c1ccc(NS(=O)(=O)c2cccc3cccnc23)cc1 has a reported inhibition of 11.9

O=C(O)CC(=O)N1CCN(C(=O)c2ccc(NS(=O)(=O)c3cccc4cccnc34)cc2)CC1 has a reported inhibition of 23.8
